# measurement.target: human ether-à-go-go-related gene (hERG) potassium channel (human, UniProt Q12809)
# Sequence (Q12809 whole entry, looked up): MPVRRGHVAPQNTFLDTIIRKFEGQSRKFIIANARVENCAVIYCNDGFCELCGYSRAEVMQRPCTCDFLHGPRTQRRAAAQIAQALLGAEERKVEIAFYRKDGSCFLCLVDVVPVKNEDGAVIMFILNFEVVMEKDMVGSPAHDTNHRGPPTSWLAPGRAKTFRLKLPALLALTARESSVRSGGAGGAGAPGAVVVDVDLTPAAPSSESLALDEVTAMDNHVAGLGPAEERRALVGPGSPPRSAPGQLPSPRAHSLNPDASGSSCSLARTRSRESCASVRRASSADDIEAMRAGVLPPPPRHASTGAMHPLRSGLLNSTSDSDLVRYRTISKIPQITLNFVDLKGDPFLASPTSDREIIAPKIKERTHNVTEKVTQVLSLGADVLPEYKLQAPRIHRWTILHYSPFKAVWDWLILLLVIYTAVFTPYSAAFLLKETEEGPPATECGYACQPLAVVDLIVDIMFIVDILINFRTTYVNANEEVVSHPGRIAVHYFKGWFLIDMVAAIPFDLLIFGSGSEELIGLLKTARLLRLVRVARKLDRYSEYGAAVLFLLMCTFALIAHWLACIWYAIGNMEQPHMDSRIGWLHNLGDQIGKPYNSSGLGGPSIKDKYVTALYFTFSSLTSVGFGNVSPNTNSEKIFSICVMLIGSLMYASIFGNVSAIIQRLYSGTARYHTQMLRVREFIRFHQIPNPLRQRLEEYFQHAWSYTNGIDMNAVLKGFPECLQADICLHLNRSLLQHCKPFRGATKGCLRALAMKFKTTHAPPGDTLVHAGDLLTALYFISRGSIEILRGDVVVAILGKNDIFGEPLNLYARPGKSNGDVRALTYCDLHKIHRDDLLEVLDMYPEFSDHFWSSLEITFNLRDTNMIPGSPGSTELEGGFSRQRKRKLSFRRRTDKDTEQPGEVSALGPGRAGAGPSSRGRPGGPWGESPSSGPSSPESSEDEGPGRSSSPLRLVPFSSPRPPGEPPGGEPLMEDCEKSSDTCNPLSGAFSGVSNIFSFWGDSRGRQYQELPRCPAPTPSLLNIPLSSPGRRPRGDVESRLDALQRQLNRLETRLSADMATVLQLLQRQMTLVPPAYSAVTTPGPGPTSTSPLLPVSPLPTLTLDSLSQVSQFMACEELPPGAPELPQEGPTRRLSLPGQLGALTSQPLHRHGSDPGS
# experiment.notes: primary screen, population patch clamp on CHO cells stably expressing hERG; higher = less effect of the substance
In all, about 310,000 compounds went through this assay and about 14,000 (4.5%) showed an effect of 50% or more. Effects have a minus sign here. This excerpt belongs to a sample that is enriched for strong results.
experimental.endpoint: hERG current change (%, negative = inhibition) at 10uM (%)
Form entry: value (%) — number only.

- compound: "O=C(O)c1cc(-c2ccccc2)nn1CC1CC(c2cccc([N+](=O)[O-])c2)=NO1 (stereo not drawn)"
  unit.label: "%"
  readout.value: 19.1
- compound: "CCn1cc(CNC(=O)/C=C/c2ccc([N+](=O)[O-])cc2)cn1"
  unit.label: "%"
  readout.value: -33.6
- compound: "Cc1ccc(-n2nnnc2-c2cnc(N3CCCC3)nc2C(F)(F)F)cc1"
  unit.label: "%"
  readout.value: -9.95
- compound: "CCOc1ccc(CNC(=O)CCC(=O)N2Cc3cccc(OC)c3Oc3ncccc32)cc1"
  unit.label: "%"
  readout.value: -44.3
- compound: "Cc1nc2ccccc2nc1N1CCOCC1"
  unit.label: "%"
  readout.value: 5.42

Entry CCc1cc2c(cc3c(=O)n(CC(=O)NCCCN4CCCCCC4)nc(CC)n32)s1 : reported hERG current change (%, negative = inhibition) at 10uM = ?
-72.7

* * *

Here, each record is paired with measured hERG current change (%, negative = inhibition) at 10uM data.
# measurement.target: human ether-à-go-go-related gene (hERG) potassium channel (human);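 also: peak tail current of the secondary pulse compared with the same well before compound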
# experiment.notes: primary screen, population patch clamp on CHO cells stably expressing hERG; higher = less effect of the substance
# Experimental: Briefly, Chinese hamster ovary (CHO) cells stably expressing the hERG channel were dislodged from tissue culture flasks and dispensed into PPC plates. […] During the recording, background leak currents were estimated by a 100 ms step to -80 mV from an initial holding potential of -70 mV and subtracted from the subsequent current measurement. The campaign was conducted in two phases using slight differences in recording protocol. […]
About 14,000 (4.5%) of roughly 310,000 compounds showed an effect of 50% or more. The effect is printed as a negative number. Many of the other results were omitted from the sample, so strong results are more common in it than they were.
Form entry: value (%) — number only.

Some solved entries appear below for comparison.
- compound: "COC(=O)COc1ccc(/C=C2/NC(=O)N(CC(=O)OC)C2=O)cc1"
  readout.value: 12.3
- compound: "Cc1cc(C(=O)OCn2nnc3ccccc3c2=O)c(C)o1"
  readout.value: -6.92
- compound: "Cn1c(=O)c2c(-c3ccccc3)n(CCCN3CCOCC3)cc2n(C)c1=O"
  readout.value: 16.1
- compound: "O=C(Cc1ccc(Br)cc1)N1CCN(C(=O)c2ccco2)CC1"
  readout.value: -32.3
- compound: "Cc1cccn2c(=O)c(C(=O)NC3CCCCC3)c(O)nc12"
  readout.value: 31.3

Entry Cc1cccn2c(=O)c3cc(C(=O)NC4CCCC4)n(C)c3nc12 : reported hERG current change (%, negative = inhibition) at 10uM = ?
1.13

Try the compound CCOC(=O)C1(Cc2ccccc2)CCCN(C(=O)c2ccc(-n3ccnc3)cc2)C1 (stereo not drawn)
-58.4

Try the compound COc1ccc(-c2oc3ncn(CCN4CCOCC4)c(=N)c3c2-c2ccc(OC)cc2)cc1
-70.3

Try the compound O=C(CSc1nnc(-c2ccc(F)cc2)o1)N1CCN(C(=O)c2ccco2)CC1
-38.4

* * *

# measurement.target: human ether-à-go-go-related gene (hERG) potassium channel (human);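 also: peak tail current of the secondary pulse compared with the same well before compound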
# experiment.notes: primary screen, population patch clamp on CHO cells stably expressing hERG; higher = less effect of the substance
Screen size: about 310,000 compounds; about 14,000 (4.5%) showed an effect of 50% or more. The effect is printed as a negative number. This is one part of a sample in which strong results are shown more often than they occur.
Class key for hERG current change (%, negative = inhibition) at 10uM values: low interval: < -20%; middle interval: ≥ -20% and < 10%; high interval: ≥ 10%

Example entries begin here.
- compound: "O=S(=O)(c1cccc(F)c1)N1CCC(CO)(Cc2cccc(F)c2)CC1"
  group.label: "middle interval"
- compound: "COc1cccc(CC2(CO)CCN(Cc3cccn3-c3cccnc3)CC2)c1"
  group.label: "low interval"
- compound: "O=C(NCc1ccc(F)cc1)C1CCCN1S(=O)(=O)c1ccccc1C(F)(F)F (stereo not drawn)"
  group.label: "middle interval"
- compound: "CCc1ccccc1NC(=O)COc1ccc2c(=O)c(Oc3cc(C)ccc3C)coc2c1"
  group.label: "high interval"
- compound: "CCn1c2c(c3cc(C(=O)O)ccc31)CCCC2=O"
  group.label: "high interval"

Please report the category associated with O=c1cc([O-])n(Cc2ccc(F)cc2)c(=O)[nH]1.[NH4+] , nothing else.
high interval

Try the compound CC(C)N1CCN(CC2COc3ccccc3O2)CC1.Cl (stereo not drawn)
middle interval

Try the compound c1ccc2c(c1)CC(CN1CCNCC1)O2 (stereo not drawn)
low interval

Try the compound O=C(CN1CCN(Cc2ccc(Cl)cc2)CC1)N/N=C/c1cccs1
low interval

Try the compound O=C(N/N=C/c1coc2ccccc2c1=O)c1ccccc1
high interval

Try the compound COc1ccc(OC)c(NC(=O)CCNS(=O)(=O)c2cc(Br)cnc2N)c1
middle interval

Try the compound O=C(COC(=O)c1cccc(-n2cnnn2)c1)c1ccc(F)cc1
middle interval

* * *

# measurement.target: human ether-à-go-go-related gene (hERG) potassium channel (human);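 also: peak tail current of the secondary pulse compared with the same well before compound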
# experiment.notes: primary screen, population patch clamp on CHO cells stably expressing hERG; higher = less effect of the substance
The whole screen tested about 310,000 compounds, of which about 14,000 (4.5%) showed an effect of 50% or more. The effect is printed as a negative number. Many of the other results were omitted from the sample, so strong results are more common in it than they were.
experimental.endpoint: hERG current change (%, negative = inhibition) at 10uM (%)
Form entry: value (%) — number only.

Some solved entries appear below for comparison.
- compound: "CN(C)CCCNc1c2ccccc2nc2ccccc12"
  readout.value: -28.8
- compound: "COc1ccc(OC)c(Nc2nc(-c3ccccc3O)nc3ccccc23)c1"
  readout.value: 18.7
- compound: "Cc1cc(N2CCN(C/C=C/c3ccccc3)CC2)n2ncnc2n1"
  readout.value: -71.5
- compound: "Fc1ccccc1-c1nc(NCCCN2CCOCC2)c2ccccc2n1"
  readout.value: -45.9
- compound: "O=c1c2ccccc2nc(SCc2cc(F)cc3c2OCOC3)n1Cc1ccco1"
  readout.value: -2.26
- compound: "O=C(NCC(c1cccnc1)N1CCN(c2ccc(F)cc2)CC1)c1cccc(Cl)c1 (stereo not shown)"
  readout.value: -66.2
- compound: "COc1ccc(N2CCN(C(CNC(=O)c3ccc4c(c3)OCO4)c3cccnc3)CC2)cc1 (stereo not shown)"
  readout.value: -16.2
- compound: "Oc1ccc(Cl)cc1Nc1nc(NCC2CCCO2)c2ccccc2n1 (stereo not shown)"
  readout.value: 23

Entry Cc1cc(N2CCN(C(c3ccccc3)c3ccccc3)CC2)n2ncnc2n1 : reported hERG current change (%, negative = inhibition) at 10uM = ?
-5.7

Try the compound Cc1nc2ncnn2c(C)c1C/C=C/c1ccccc1
-15.3

Try the compound COc1ccc(OC)c(Nc2cc(C)nc3ccc(C)cc23)c1
-68.6

Try the compound COc1ccc(Nc2nc(NCC3CCCO3)c3ccccc3n2)c(OC)c1.Cl (stereo not shown)
-71.7

Try the compound c1ccc(N2CCN(c3nnnn3-c3ccccc3)CC2)cc1
-11.2

Try the compound Cc1cc(N2CCN(c3nc4ccccc4s3)CC2)n2ncnc2n1
-77.6

Try the compound Cl.c1ccc(Nc2nc(NCC3CCCO3)c3ccccc3n2)cc1 (stereo not shown)
-31.2

* * *

# measurement.target: human ether-à-go-go-related gene (hERG) potassium channel (human, UniProt Q12809);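 also: peak tail current of the secondary pulse compared with the same well before compound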
# experiment.notes: primary screen, population patch clamp on CHO cells stably expressing hERG; higher = less effect of the substance
Among all 310,000 compounds or so, about 14,000 (4.5%) showed an effect of 50% or more. Effects have a minus sign here. Shown is part of a subset that was picked to be rich in strong results.
experimental.endpoint: hERG current change (%, negative = inhibition) at 10uM (%)
Form entry: value (%) — number only.

Some solved entries appear below for comparison.
- compound: "COc1cc(CN2CCNCC2)cc(OC)c1OC.Cl"
  measurement.target: "human ether-à-go-go-related gene (hERG) potassium channel (human, UniProt Q12809)"
  unit.label: "%"
  readout.value: 5.64
- compound: "CC1(NC(=O)Nc2ccccc2)CCS(=O)(=O)C1 (stereo not drawn)"
  measurement.target: "human ether-à-go-go-related gene (hERG) potassium channel (human, UniProt Q12809)"
  unit.label: "%"
  readout.value: -53

Given the entry Clc1ccc(CN2CCC(c3ccccc3)CC2)cc1 , what hERG current change (%, negative = inhibition) at 10uM was observed with human ether-à-go-go-related gene (hERG) potassium channel (human, UniProt Q12809)?
-59.1

Try the compound CCOC(=S)N/C(=N\S(C)(=O)=O)c1ccccc1
-2.92

Try the compound Clc1ccc(CN2CCCCCCC2)cc1
-33.1

Try the compound Nn1c(SCC(=O)Nc2c(F)cc(F)cc2Br)nnc1C1CCCCC1
3.21
